Organism: Rattus norvegicus
Assay: Open TG-GATES - Regimen: Daily Repeat
Assay type: toxicity, organism-based, Sprague-Dawley
Parameters: regimen Daily Repeat, gender Male, age 6 weeks
Conditions: in vivo, po, 0 mg/kg, […], tissue Plasma, route gavage, dose level Control, time 28 day
propertyLabel: TBIL

Example entries begin here.
Cn1c(=O)c2[nH]cnc2n(C)c1=O.O: 0.01 mg/dL
NC(=O)N/N=C/c1ccc([N+](=O)[O-])o1: 0.068 mg/dL
CC(=O)Oc1ccccc1C(=O)O: 0.2 mg/dL
COc1ccc2c(c1)c(CC(=O)O)c(C)n2C(=O)c1ccc(Cl)cc1: 0.3 mg/dL
CCc1cc(C(N)=S)ccn1 [ETHIONAMIDE]: 0.3 mg/dL

Alright, here's another compound for you.
IN: Which TBIL value is on record for Clc1ccccc1CN1CCc2sccc2C1 ?
OUT: 0.1 mg/dL
